src = paper PMC9763333

Overview of reported Maximum drug loaded across a group of compounds:
- assayNotes: Drug loading into DC Bead LUMI
- Type: physicochemical
- testContext: DC Bead LUMI; mean ± SD, n = 3; base form except Dox (salt form)

{"structureAsSmiles": "CCCCNc1nc(N)c2[nH]c(=O)n(Cc3ccc(OCCN(C)C)nc3)c2n1", "Maximum drug loaded [mg drug/ml beads]": 65.95}
{"structureAsSmiles": "CCNCc1nc2c(N)nc3ccccc3c2n1CC(C)(C)O", "Maximum drug loaded [mg drug/ml beads]": 65.97}
{"structureAsSmiles": "CC(C)Cn1cnc2c(N)nc3ccccc3c21", "Maximum drug loaded [mg drug/ml beads]": 65.28}
{"structureAsSmiles": "COc1nc(OCc2cccc(-c3ccccc3)c2C)ccc1CNCCNC(C)=O", "Maximum drug loaded [mg drug/ml beads]": 148.05}

* * *

- assayNotes: Drug loading into DC Bead LUMI
- Assay type: physicochemical
- testContext: DC Bead LUMI
Structures can show the parent of a compound that is named as a salt.

{"compound": "COc1cccc2c1C(=O)c1c(O)c3c(c(O)c1C2=O)C[C@@](O)(C(=O)CO)C[C@@H]3O[C@H]1C[C@H](N)[C@H](O)[C@H](C)O1 [Dox, doxorubicin hydrochloride]", "loading behaviour": "slower loading"}
{"compound": "COc1nc(OCc2cccc(-c3ccccc3)c2C)ccc1CNCCNC(C)=O", "loading behaviour": "slower loading"}
{"compound": "CC(C)Cn1cnc2c(N)nc3ccccc3c21", "loading behaviour": "Fast loading"}
{"compound": "CCCCNc1nc(N)c2[nH]c(=O)n(Cc3ccc(OCCN(C)C)nc3)c2n1", "loading behaviour": "Fast loading"}
{"compound": "CCNCc1nc2c(N)nc3ccccc3c2n1CC(C)(C)O", "loading behaviour": "Fast loading"}

* * *

- assayNotes: Drug solubilization by salt formation in acid
- Format: physicochemical
- testContext: T in °C in parentheses in the cell (20.1 or 21.1)
Where a name gives a salt, the structure may show the parent alone.
The following molecules are shown together with reported pH at which each drug dissolved for loading values.
observedProperty: pH at which each drug dissolved for loading

{"molecule": "COc1cccc2c1C(=O)c1c(O)c3c(c(O)c1C2=O)C[C@@](O)(C(=O)CO)C[C@@H]3O[C@H]1C[C@H](N)[C@H](O)[C@H](C)O1 [Dox, doxorubicin hydrochloride]", "result": "4.2 (21.1)"}
{"molecule": "CCCCNc1nc(N)c2[nH]c(=O)n(Cc3ccc(OCCN(C)C)nc3)c2n1", "result": "1.65 (20.1)"}
{"molecule": "COc1nc(OCc2cccc(-c3ccccc3)c2C)ccc1CNCCNC(C)=O", "result": "2.11 (20.1)"}
{"molecule": "CC(C)Cn1cnc2c(N)nc3ccccc3c21", "result": "2.06 (20.1)"}

* * *

- assayNotes: pKa measurement by triple titration in methanol–water co-solvent with Yasuda-Shedlovsky extrapolation
- Assay type: physicochemical
- testContext: methanol–water co-solvent, aqueous value by Yasuda-Shedlovsky extrapolation; read-out: pKa (first, measured)
Parameter pKa: see the listing below.
observedProperty: pKa

{"structureAsSmiles": "CCCCNc1nc(N)c2[nH]c(=O)n(Cc3ccc(OCCN(C)C)nc3)c2n1", "observedProperty": "pKa", "result": 4.58}
{"structureAsSmiles": "CCNCc1nc2c(N)nc3ccccc3c2n1CC(C)(C)O", "observedProperty": "pKa", "result": 7.02}
